# Tested on: hepatitis C replicon
# procedure_summary: hepatitis C replicon EC50 assay
# Assay type: cell-based
# conditions: Hepatitis C virus; hepatitis C replicon; read-out: EC50
recorded_endpoint: EC50

- smiles_notation: "CC#CC1(S(=O)(=O)NC(=O)[C@@]23C[C@H]2/C=C\\CCCCC[C@H](NC(=O)OC(C)(C)C)C(=O)N2C[C@H](Oc4nc5c(-c6nc(C7CCCCC7)cs6)cccc5n4C(C)C)C[C@H]2C(=O)N3)CC1"
  data_value: "< 10 nM"
- smiles_notation: "CC(C)n1c(O[C@@H]2C[C@H]3C(=O)N[C@]4(C(=O)NS(=O)(=O)N(C)C)C[C@H]4/C=C\\CCCCC[C@H](NC(=O)OC(C)(C)C)C(=O)N3C2)nc2c(-c3nc(-c4ccc(F)c(F)c4)cs3)cccc21"
  data_value: "< 10 nM"
- smiles_notation: "CC(C)n1c(O[C@@H]2C[C@H]3C(=O)N[C@]4(C(=O)NS(=O)(=O)N(C)C)C[C@H]4/C=C\\CCCCC[C@H](NC(=O)OC(C)(C)C)C(=O)N3C2)nc2c(-c3nc(Cc4ccc(-c5ccccc5)cc4)cs3)cccc21"
  data_value: "10 to 100 nM"
- smiles_notation: "CC(C)n1c(O[C@@H]2C[C@H]3C(=O)N[C@]4(C(=O)NS(=O)(=O)N(C)C)C[C@H]4/C=C\\CCCCC[C@H](NC(=O)OC(C)(C)C)C(=O)N3C2)nc2c(-c3nc(-c4ccc(F)cc4F)cs3)cccc21"
  data_value: "10 to 100 nM"
- smiles_notation: "CC(C)n1c(O[C@@H]2C[C@H]3C(=O)N[C@]4(C(=O)NS(=O)(=O)C5(C)CC5)C[C@H]4/C=C\\CCCCC[C@H](NC(=O)OC(C)(C)C)C(=O)N3C2)nc2c(-c3nc(Cc4ccc(Cl)cc4)cs3)cccc21"
  data_value: "> 100 nM"
- smiles_notation: "CC(C)c1csc(-c2cc(O[C@@H]3C[C@H]4C(=O)N[C@]5(C(=O)NS(=O)(=O)C6(C)CC6)C[C@H]5/C=C\\CCCCC[C@H](NC(=O)OC(C)(C)C)C(=O)N4C3)c3c(n2)CCCC3)n1"
  data_value: "< 10 nM"
- smiles_notation: "COc1ccccc1-c1csc(-c2cccc3c2nc(O[C@@H]2C[C@H]4C(=O)N[C@]5(C(=O)NS(=O)(=O)N(C)C)C[C@H]5/C=C\\CCCCC[C@H](NC(=O)OC(C)(C)C)C(=O)N4C2)n3C(C)C)n1"
  data_value: "10 to 100 nM"
- smiles_notation: "CC(C)n1c(O[C@@H]2C[C@H]3C(=O)N[C@]4(C(=O)NS(=O)(=O)N(C)C)C[C@H]4/C=C\\CCCCC[C@H](NC(=O)OC(C)(C)C)C(=O)N3C2)nc2c(-c3nc(-c4ccc(F)cc4)cs3)cccc21"
  data_value: "10 to 100 nM"
- smiles_notation: "CC(C)n1c(O[C@@H]2C[C@H]3C(=O)N[C@]4(C(=O)NS(=O)(=O)C5(C)CC5)C[C@H]4/C=C\\CCCCC[C@H](NC(=O)OC(C)(C)C)C(=O)N3C2)nc2c(-c3nc(-c4ccc(F)c(C(F)(F)F)c4)cs3)cccc21"
  data_value: "10 to 100 nM"

====

# assayed_system: NS3/NS4 complexes (Hepatitis C virus genotype 1a, UniProt P27958)
# Sequence (P27958 1027-1657, one chain of several): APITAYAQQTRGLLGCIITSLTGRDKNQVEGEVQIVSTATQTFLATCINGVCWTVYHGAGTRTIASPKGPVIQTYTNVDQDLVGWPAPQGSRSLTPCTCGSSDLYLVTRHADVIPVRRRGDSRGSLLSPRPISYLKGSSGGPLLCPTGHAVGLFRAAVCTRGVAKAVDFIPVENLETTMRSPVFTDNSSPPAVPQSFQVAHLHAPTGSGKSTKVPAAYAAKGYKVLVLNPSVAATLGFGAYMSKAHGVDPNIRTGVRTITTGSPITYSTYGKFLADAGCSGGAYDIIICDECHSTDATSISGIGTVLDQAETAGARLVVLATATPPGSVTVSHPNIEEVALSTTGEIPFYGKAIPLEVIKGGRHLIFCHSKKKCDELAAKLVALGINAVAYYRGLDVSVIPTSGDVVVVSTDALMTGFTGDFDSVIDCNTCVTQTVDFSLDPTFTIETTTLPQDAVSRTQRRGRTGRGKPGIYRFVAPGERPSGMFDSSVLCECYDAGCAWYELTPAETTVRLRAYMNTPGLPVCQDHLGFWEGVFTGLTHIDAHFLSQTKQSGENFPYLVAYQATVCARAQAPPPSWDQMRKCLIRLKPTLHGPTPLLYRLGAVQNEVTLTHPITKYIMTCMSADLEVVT
# procedure_summary: biochemical
# conditions: NS3-NS4 activity; 23° C., pH 7.5, 25 μM NS4A peptide; read-out: IC50

- molecule: "CC(C)(C)OC(=O)N[C@H]1CCCCC/C=C\\[C@@H]2C[C@@]2(C(=O)NS(=O)(=O)C2(C)CC2)NC(=O)[C@@H]2C[C@@H](Oc3nc(-c4ccccc4)cc4c3CCCC4)CN2C1=O [Compound 404]"
  IC50: "< 10 nM"
- molecule: "CC(C)n1c(O[C@@H]2C[C@H]3C(=O)N[C@]4(C(=O)NS(=O)(=O)C5(C)CC5)C[C@H]4/C=C\\CCCCC[C@H](NC(=O)OC(C)(C)C)C(=O)N3C2)nc2c(-c3nc(-c4ccc5c(c4)OCCO5)cs3)cccc21 [Compound 112]"
  IC50: "< 10 nM"
- molecule: "CC(C)(C)OC(=O)N[C@H]1CCCCC/C=C\\[C@@H]2C[C@@]2(C(=O)NS(=O)(=O)C2(C)CC2)NC(=O)[C@@H]2C[C@@H](Oc3nc4cccc(-c5nc(C6CCCCC6)cs5)c4nc3C(F)(F)F)CN2C1=O [Compound 701]"
  IC50: "< 10 nM"

====

# Test system: hepatitis C replicon
# procedure_summary: hepatitis C replicon EC50 assay
# Type: cell-based
# conditions: Hepatitis C virus; hepatitis C replicon; read-out: EC50

- smiles_notation: "CC(C)n1c(O[C@@H]2C[C@H]3C(=O)N[C@]4(C(=O)NS(=O)(=O)C5CC5)C[C@H]4/C=C\\CCCCC[C@H](NC(=O)OC(C)(C)C)C(=O)N3C2)nc2c(-c3nc(C4CCCCC4)cs3)cccc21"
  assayed_system: "hepatitis C replicon"
  EC50: "< 0.01 µM"
- smiles_notation: "COc1ccccc1-c1csc(-c2cccc3c2nc(O[C@@H]2C[C@H]4C(=O)N[C@]5(C(=O)NS(=O)(=O)C6(C)CC6)C[C@H]5/C=C\\CCCCC[C@H](N)C(=O)N4C2)n3C(C)C)n1"
  assayed_system: "hepatitis C replicon"
  EC50: "> 0.1 µM"
- smiles_notation: "CC(C)n1c(O[C@@H]2C[C@H]3C(=O)N[C@]4(C(=O)NS(=O)(=O)C5(C)CC5)C[C@H]4/C=C\\CCCCC[C@H](NC(=O)OC(C)(C)C)C(=O)N3C2)nc2c(-c3nc(-c4ccc(Br)cc4)cs3)cccc21"
  assayed_system: "hepatitis C replicon"
  EC50: "> 0.1 µM"
- smiles_notation: "CC(C)n1c(O[C@@H]2C[C@H]3C(=O)N[C@]4(C(=O)NS(=O)(=O)C5CC5)C[C@H]4/C=C\\CCCCC[C@H](NC(=O)OC(C)(C)C)C(=O)N3C2)nc2c(-c3nc(C4CCN(C)CC4)cs3)cccc21"
  assayed_system: "hepatitis C replicon"
  EC50: "< 0.01 µM"

====

The entries below are paired with their reported IC50.
# assayed_system: NS3/NS4 complexes (Hepatitis C virus genotype 1a, UniProt P27958)
# procedure_summary: biochemical
# conditions: NS3-NS4 activity; 23° C., pH 7.5, 25 μM NS4A peptide; read-out: IC50
recorded_endpoint: IC50

- smiles_notation: "CC(C)n1c(O[C@@H]2C[C@H]3C(=O)N[C@]4(C(=O)NS(=O)(=O)N(C)C)C[C@H]4/C=C\\CCCCC[C@H](NC(=O)OC(C)(C)C)C(=O)N3C2)nc2c(-c3nc(Cc4ccc(OC(F)(F)F)cc4)cs3)cccc21"
  assayed_system: "NS3/NS4 complexes (Hepatitis C virus genotype 1a, UniProt P27958)"
  data_value: "< 10 nM"
- smiles_notation: "CC(C)n1c(O[C@@H]2C[C@H]3C(=O)N[C@]4(C(=O)NS(=O)(=O)N(C)C)C[C@H]4/C=C\\CCCCC[C@H](NC(=O)OC(C)(C)C)C(=O)N3C2)nc2c(-c3nc(-c4ccc(F)cc4F)cs3)cccc21"
  assayed_system: "NS3/NS4 complexes (Hepatitis C virus genotype 1a, UniProt P27958)"
  data_value: "< 10 nM"

====

# Test system: hepatitis C replicon
# procedure_summary: hepatitis C replicon EC50 assay
# Format: cell-based
# conditions: Hepatitis C virus; hepatitis C replicon; read-out: EC50
pEC50: −log10 of the molar value.
The entries below are paired with their reported pEC50.
recorded_endpoint: pEC50

- compound: "CC(C)n1c(O[C@@H]2C[C@H]3C(=O)N[C@]4(C(=O)NS(=O)(=O)N(C)C)C[C@H]4/C=C\\CCCCC[C@H](NC(=O)OC(C)(C)C)C(=O)N3C2)nc2c(-c3nc(-c4ccc(C(C)(C)C)cc4)cs3)cccc21 [Compound 143]"
  assayed_system: "hepatitis C replicon"
  data_value: "7.00 to 8.00"
- compound: "CC(C)n1c(O[C@@H]2C[C@H]3C(=O)N[C@]4(C(=O)NS(=O)(=O)N(C)C)C[C@H]4/C=C\\CCCCC[C@H](NC(=O)OC(C)(C)C)C(=O)N3C2)nc2c(-c3nc(Cc4cccc(C(F)(F)F)c4)cs3)cccc21 [Compound 149]"
  assayed_system: "hepatitis C replicon"
  data_value: "7.00 to 8.00"
- compound: "CC(C)n1c(O[C@@H]2C[C@H]3C(=O)N[C@]4(C(=O)NS(=O)(=O)N(C)C)C[C@H]4/C=C\\CCCCC[C@H](NC(=O)OC(C)(C)C)C(=O)N3C2)nc2c(-c3nc(Cc4ccc(Cl)cc4)cs3)cccc21 [Compound 151]"
  assayed_system: "hepatitis C replicon"
  data_value: "> 8.00"
- compound: "CC(C)n1c(O[C@@H]2C[C@H]3C(=O)N[C@]4(C(=O)NS(=O)(=O)C5(C)CC5)C[C@H]4/C=C\\CCCCC[C@H](NC(=O)OC(C)(C)C)C(=O)N3C2)nc2c(-c3csc(C(F)(F)F)n3)cccc21 [Compound 176]"
  assayed_system: "hepatitis C replicon"
  data_value: "> 8.00"
- compound: "CC(C)n1c(O[C@@H]2C[C@H]3C(=O)N[C@]4(C(=O)NS(=O)(=O)N(C)C)C[C@H]4/C=C\\CCCCC[C@H](NC(=O)OC(C)(C)C)C(=O)N3C2)nc2c(-c3nc(-c4ccc(C(F)(F)F)cc4)cs3)cccc21 [Compound 141]"
  assayed_system: "hepatitis C replicon"
  data_value: "< 7.00"
- compound: "Cc1ccc2c(nc(O[C@@H]3C[C@H]4C(=O)N[C@]5(C(=O)NS(=O)(=O)N(C)C)C[C@H]5/C=C\\CCCCC[C@H](NC(=O)OC(C)(C)C)C(=O)N4C3)n2C(C)C)c1-c1nc(C(C)C)cs1 [Compound 167]"
  assayed_system: "hepatitis C replicon"
  data_value: "7.00 to 8.00"
- compound: "CC(C)n1c(O[C@@H]2C[C@H]3C(=O)N[C@]4(C(=O)NS(=O)(=O)C5CC5)C[C@H]4/C=C\\CCCCC[C@H](N)C(=O)N3C2)nc2c(-c3nc(C4CCCCC4)cs3)cccc21 [Compound 173]"
  assayed_system: "hepatitis C replicon"
  data_value: "< 7.00"
- compound: "CC(C)n1c(O[C@@H]2C[C@H]3C(=O)N[C@]4(C(=O)NS(=O)(=O)N(C)C)C[C@H]4/C=C\\CCCCC[C@H](NC(=O)OC(C)(C)C)C(=O)N3C2)nc2c(-c3nc(-c4ccc(Br)cc4)cs3)cccc21 [Compound 137]"
  assayed_system: "hepatitis C replicon"
  data_value: "< 7.00"
- compound: "COc1ccccc1Cc1csc(-c2cccc3c2nc(O[C@@H]2C[C@H]4C(=O)N[C@]5(C(=O)NS(=O)(=O)C6(C)CC6)C[C@H]5/C=C\\CCCCC[C@H](NC(=O)OC(C)(C)C)C(=O)N4C2)n3C(C)C)n1 [Compound 115]"
  assayed_system: "hepatitis C replicon"
  data_value: "> 8.00"
